# Test system: SR leukemia
# Test name: NCI tumour cell line growth inhibition, 48 h; in the data active means GI50 below about 0.43 µM; inactive means the rest
Possible outcomes: active, inactive

{"Molecule": "N#C[Se]CCN1C(=O)C2C(C1=O)[C@H]1C=C[C@@H]2S1 (stereo not given in full)", "Test system": "SR leukemia", "Discrete label": "inactive"}
{"Molecule": "CC(C)(C)[Si](C)(C)OC1[C@@H](O[Si](C)(C)C(C)(C)C)[C@@H](CNC(=O)NC(=O)CF)O[C@H]1n1cnc2c(NC(=O)Nc3ccccc3)ncnc21 (stereo not given in full)", "Test system": "SR leukemia", "Discrete label": "inactive"}
{"Molecule": "CCN1C(=O)N(CC)C2C1NN=c1s/c(=C\\c3ccco3)c(=O)n12 (stereo not given)", "Test system": "SR leukemia", "Discrete label": "active"}
{"Molecule": "CC/C(=C(/c1ccc(O)cc1)c1ccc(OCCN)cc1)c1ccccc1", "Test system": "SR leukemia", "Discrete label": "inactive"}
{"Molecule": "Cn1cc(C2=C(c3c4n(c5ccccc35)CCC(CN)C4)C(=O)NC2=O)c2ccccc21 (stereo not given)", "Test system": "SR leukemia", "Discrete label": "inactive"}
{"Molecule": "Cc1ccc2c(c1)c(Sc1ccc(C(=O)NO)cc1)c1n2CN(C)CC1", "Test system": "SR leukemia", "Discrete label": "inactive"}
{"Molecule": "COc1ccc2c(c1)CC[C@@H]1[C@@H]2CC[C@]2(C)c3c(cc(C(=O)O)c4sccc34)C[C@@H]12", "Test system": "SR leukemia", "Discrete label": "inactive"}
{"Molecule": "COc1cc2c(cc1OCCCOS(C)(=O)=O)N=C[C@@H]1CCCN1C2=O", "Test system": "SR leukemia", "Discrete label": "inactive"}
{"Molecule": "COCCNc1ccc2c3c(cccc13)C(=O)N(CCN(C)C)C2=O", "Test system": "SR leukemia", "Discrete label": "inactive"}
{"Molecule": "COc1ccc2c(O)c(/C=C3\\N=Nc4ccccc43)oc2c1C[C@@H]1CCNC[C@H]1F", "Test system": "SR leukemia", "Discrete label": "inactive"}

----------
Reported values of TGI for individual entries
# Test system: TK-10 renal
# Test name: NCI tumour cell line growth inhibition, 48 h

{"Compound": "CC(C)C(=O)CC(c1ccc(Cl)cc1)N1N=C(C(C)C)CC1c1ccc(Cl)cc1 (stereo unspecified)", "TGI": "> 100 µM"}
{"Compound": "CN(C)CCCSc1nc2c(c(=N)n1-c1ccccc1)c(=S)n(-c1ccccc1)c(=S)n2-c1ccccc1", "TGI": "3.09 µM"}
{"Compound": "O=C(/C(=C/c1ccc([N+](=O)[O-])cc1)SCc1ccc(Cl)cc1)c1ccc(F)cc1", "TGI": "29.5 µM"}
{"Compound": "COc1ccc2c(c1)oc(=O)c1cc(OC)ccc12", "TGI": "> 100 µM"}
{"Compound": "NC(N)=NC(N)=Nc1cnccn1", "TGI": "> 100 µM"}
{"Compound": "C=CCN1COc2c(cc3c4c(cccc24)C(=O)O3)C1", "TGI": "39 µM"}
{"Compound": "COc1cc(C(=O)N2CCN(c3ccccc3)CC2)c2ccccc2n1", "TGI": "> 100 µM"}
{"Compound": "C#C/C=C\\CCCCCCCCCCCCCC/C=C\\CCCCC#CC(O)C#CCCCC/C=C\\CCCCCC/C=C/C(O)C#C (stereo unspecified)", "TGI": "> 49 µM"}
{"Compound": "CC/C(=C(/c1ccc(O)cc1)c1ccc(OCCN)cc1)c1ccccc1", "TGI": "10.2 µM"}
{"Compound": "[N-]=[N+]=Nc1c(Cl)c(Cl)nc2ccccc12", "TGI": "> 100 µM"}
{"Compound": "[Cl][Hg][c]1ccc(Cl)s1", "TGI": "3.09 µM"}
